B1: TRIM9 (parent)
chain: CVQCKMPVCYQCLEEGKHSSHEVK

Variants of: B1
Assay: protein stability index of a GFP-peptide fusion (GPS, HEK-293T) (PSI 1-6); higher = more stable;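 also: lentivirally expressed fusions sorted by FACS into six bins by GFP to DsRed ratio, PSI derived from sequencing read proportions per bin multiplied by bin number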
Conditions: c terminus: a fixed tail appended
property.label: protein stability index

>>> recorded_number("V23H")
3.32
>>> recorded_number("V8Q")
4.33
>>> recorded_number("Y10W")
2.51
>>> recorded_number("P7R")
3.51
>>> recorded_number("V8Y")
3.01
>>> recorded_number("K5C")
3.84
>>> recorded_number("K17M")
3.3
>>> recorded_number("E15M")
3.75
>>> recorded_number("S20V")
3.75
>>> recorded_number("S20R")
4.38
>>> recorded_number("V8H")
4.89
>>> recorded_number("E15Q")
3.76
>>> recorded_number("C4M")
3.37
>>> recorded_number("H21Y")
3.14
>>> recorded_number("V8M")
4.13
>>> recorded_number("M6C")
3.73
>>> recorded_number("H21L")
3.87
>>> recorded_number("K24R")
3.46
>>> recorded_number("Q3I")
3.6
>>> recorded_number("H21Q")
4.16
>>> recorded_number("C4P")
4.11
>>> recorded_number("Q3W")
2.88

These measurements were taken from the supplement of paper PMC10567573.
